Values were extracted from PubChem BioAssay (NCI).

Test system: MDA-MB-468 breast
Experiment: NCI tumour cell line growth inhibition, 48 h
Measurement type: TGI (µM)
Answers are plain numbers, in µM.

Cc1ccc(O)cc1Nc1ccnc2cc(-c3ccccn3)ccc12	3.57
CCN(CCNc1ccc(C)c2sc3cc(Cl)ccc3c(=O)c12)CC(C)(C)O	10.4
CCN(CC)CCS(=O)(=O)CCNc1ccnc2cc(Cl)ccc12	1.91
CC(C)C/C(=N\NC(=O)c1ccncc1)c1cc(Cl)ccc1O	1.97
CCc1ccc(C2=NN(c3ccc(S(C)(=O)=O)cc3)C(=O)CC2)cc1	43.7
CCc1c(C#N)c(SC(C(N)=O)c2ccccc2)nc(N2CCC(N)CC2)c1C#N (stereo not given)	16.4

List the reported TGI of each compound below.
1. Oc1ccc(-c2[nH]c3ccccc3c2-c2nc3ccccc3o2)cc1
2. O=C(/C=C/c1cccc(Oc2ccc(Cl)cc2)c1)c1ccccc1
3. O=C1C2C(C(=O)N1CC[Se][Se]CCN1C(=O)C3C(C1=O)[C@H]1C=C[C@@H]3C1)[C@H]1C=C[C@@H]2C1 (stereo not given in full)
4. COc1ncc2cc1NS(=O)(=O)c1cccc(c1)C(=O)NCC1=CC=C(S1)c1ncnc3c1SC2=C3C
5. Nc1n[nH]c2ccc([C@@H]3Nc4c(F)cc5[nH]ncc5c4[C@H]4C5CCC(C5)[C@@H]34)cc12 (stereo not given in full)
6. CCN(CC)Cc1cc(Nc2cc(C(F)(F)F)c(C#N)c3nc4ccccc4n23)ccc1O

[5.98, 338, 1.32, 0.234, 0.621, 3.69]
